Assay: Pharmacokinetics of oral DAS in rats with or without SA pretreatment
Type: in vivo, Wistar rats
Conditions: Wistar, rat, plasma, po, 25 mg/kg, Kel, rats, DAS 25 mg/kg p.o. single dose, alone; Mean ± SD
MEASUREMENT NAME: k el (s⁻¹)
Answer with a number only, understood to be in s⁻¹.

Entry Cc1nc(Nc2ncc(C(=O)Nc3c(C)cccc3Cl)s2)cc(N2CCN(CCO)CC2)n1 has what k el? 4.44e-05

----------
Experiment: Pharmacokinetics of oral DAS in rats with or without SA pretreatment
Assay type: in vivo, Wistar rats
Conditions: Wistar, rat, plasma, po, 25 mg/kg, MRT 0-inf_obs, rats, DAS 25 mg/kg p.o. after SA 40 mg/kg p.o. pretreatment for seven days; Mean ± SD
MEASUREMENT NAME: MRT inf (h)
Answer with a number only, understood to be in h.

Entry Cc1nc(Nc2ncc(C(=O)Nc3c(C)cccc3Cl)s2)cc(N2CCN(CCO)CC2)n1 [DAS, Dasatinib] has what MRT inf? 8.2

----------
Assay: Pharmacokinetics of oral DAS in rats with or without SA pretreatment
Format: in vivo, Wistar rats
Details: Wistar, rat, plasma, po, 25 mg/kg, AUC 0-t, rats, DAS 25 mg/kg p.o. after SA 40 mg/kg p.o. pretreatment for seven days; Mean ± SD
MEASUREMENT NAME: AUC(0-t)
The reply should read as a number followed by its unit.

Entry Cc1nc(Nc2ncc(C(=O)Nc3c(C)cccc3Cl)s2)cc(N2CCN(CCO)CC2)n1 [DAS, Dasatinib] has what AUC(0-t)? 2210 ng·h/mL

----------
Test: Pharmacokinetics of oral DAS in rats with or without SA pretreatment
Type: in vivo, Wistar rats
Settings: Wistar, rat, plasma, po, 25 mg/kg, Cmax, rats, DAS 25 mg/kg p.o. single dose, alone; Mean ± SD
MEASUREMENT NAME: Cmax (ng/mL)
Answer with a number only, understood to be in ng/mL.

Entry Cc1nc(Nc2ncc(C(=O)Nc3c(C)cccc3Cl)s2)cc(N2CCN(CCO)CC2)n1 has what Cmax? 259

----------
Experiment: Pharmacokinetics of oral DAS in rats with or without SA pretreatment
Format: in vivo, Wistar rats
Settings: Wistar, rat, plasma, po, 25 mg/kg, MRT 0-inf_obs, rats, DAS 25 mg/kg p.o. single dose, alone; Mean ± SD
MEASUREMENT NAME: MRT inf (h)
Answer with a number only, understood to be in h.

Entry Cc1nc(Nc2ncc(C(=O)Nc3c(C)cccc3Cl)s2)cc(N2CCN(CCO)CC2)n1 [DAS, Dasatinib] has what MRT inf? 7.31

----------
Test: Pharmacokinetics of oral DAS in rats with or without SA pretreatment
Type: in vivo, Wistar rats
Conditions: Wistar, rat, plasma, po, 25 mg/kg
MEASUREMENT NAME: half-life (h)
Answer with a number only, understood to be in h.

Entry Cc1nc(Nc2ncc(C(=O)Nc3c(C)cccc3Cl)s2)cc(N2CCN(CCO)CC2)n1 [DAS, Dasatinib] has what half-life? 5.59
